# test-system: MyD88^TIR (Homo sapiens, UniProt Q99836)
# Construct: MyD88 (residues 148–296); 6xHis; made in house; host or cells: E. coli BL21 (DE3)
# Sequence (Q99836 148-296): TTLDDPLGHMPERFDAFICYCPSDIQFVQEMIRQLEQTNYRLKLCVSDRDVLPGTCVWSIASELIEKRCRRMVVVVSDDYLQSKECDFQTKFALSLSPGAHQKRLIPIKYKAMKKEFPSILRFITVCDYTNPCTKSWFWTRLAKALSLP
# protocol: T‐Surf phage library (P8 and P3) selection against MyD88^TIR, four rounds, NGS read counts
# Type: binding
# study-conditions: P8_MyD88: rank by count before grouping
Returns: string. Value is True if measured Rank (before) is below 300, and False if it is greater than or equal to it.

Examples from the recorded data:
sequence-content | test-system | classification
YASSSWALDELLKILYANETM | MyD88^TIR (Homo sapiens, UniProt Q99836) | True
WALNELQQILHARELF | MyD88^TIR (Homo sapiens, UniProt Q99836) | False
YASSSWALDELLQILHARELF | MyD88^TIR (Homo sapiens, UniProt Q99836) | True
SEDTRNNFLYHLYEAL | MyD88^TIR (Homo sapiens, UniProt Q99836) | True
SAAYGDYWVRQIRMIE | MyD88^TIR (Homo sapiens, UniProt Q99836) | False

Enquiry: Bench note: check whether LGYHWIDWEYYVGTED shows Rank (before) below 300
Return: False

Enquiry: Bench note: check whether LTDVANILGYHWIDWE shows Rank (before) below 300
Return: True
